B1: RSPH3 (parent)
chain: KAASLARNLAKRRRTYLGGAAGRS

- Variants of: B1
- Assay comment: protein stability index of a GFP-peptide fusion (GPS, HEK-293T) (PSI 1-6); higher = more stable;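 note: lentivirally expressed fusions sorted by FACS into six bins by GFP to DsRed ratio, PSI derived from sequencing read proportions per bin multiplied by bin number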
- Particulars: c terminus: a fixed tail appended
Task for the reader: assign each of the following variants its reported protein stability index.
Answer field: number only, no words.

Prompt: Suppose we examine the variant KRASLARNLAKRRRTYLGGAAGRS [A2R] ; what protein stability index value has been reported?
Response: 3.91

Prompt: Also KAASLARNLAKRRCTYLGGAAGRS [R14C] ?
Response: 2.96

Prompt: Also KAASLARNLAKRRRYYLGGAAGRS [T15Y] ?
Response: 1.29

Prompt: Also KAASLARNEAKRRRTYLGGAAGRS [L9E] ?
Response: 4.34

Prompt: Also KAASLARNLAKRRRTYLGQAAGRS [G19Q] ?
Response: 3.22

Prompt: Also KAQSLARNLAKRRRTYLGGAAGRS [A3Q] ?
Response: 3.71

Prompt: Also KAASLARNLAKRRRTYLEGAAGRS [G18E] ?
Response: 2.45

Prompt: Also KAASLARNLAKRRRMYLGGAAGRS [T15M] ?
Response: 3.14

Prompt: Also KAASLARNLAKRDRTYLGGAAGRS [R13D] ?
Response: 3.58

Prompt: Also KAASLARNLAKRRRTYLGGAAGRR [S24R] ?
Response: 2.32

Prompt: Also KAASLARNLAKRRRTYLGGAAGRH [S24H] ?
Response: 2.41

Prompt: Also AAASLARNLAKRRRTYLGGAAGRS [K1A] ?
Response: 1.98

Prompt: Also KAASLARNLAKRRRTYLGEAAGRS [G19E] ?
Response: 2.13

Prompt: Also KAASLAVNLAKRRRTYLGGAAGRS [R7V] ?
Response: 1.98

Prompt: Also KAASLARNLAKRRRTYLGGAAGIS [R23I] ?
Response: 1.59

Prompt: Also KAASLARNLAKGRRTYLGGAAGRS [R12G] ?
Response: 2.75

Prompt: Also WAASLARNLAKRRRTYLGGAAGRS [K1W] ?
Response: 2.29

Prompt: Also CAASLARNLAKRRRTYLGGAAGRS [K1C] ?
Response: 1.87

Prompt: Also KAASMARNLAKRRRTYLGGAAGRS [L5M] ?
Response: 2.33

Prompt: Also KAASLARNLFKRRRTYLGGAAGRS [A10F] ?
Response: 1.29

Prompt: Also KAASLARNLAARRRTYLGGAAGRS [K11A] ?
Response: 1.64

Prompt: Also KAASLARNLAKRRRTYLGGAALRS [G22L] ?
Response: 2.42

Prompt: Also KAASLARSLAKRRRTYLGGAAGRS [N8S] ?
Response: 2.88

Prompt: Also KAASLARNLAKRRRTVLGGAAGRS [Y16V] ?
Response: 2.17

Prompt: Also KAASWARNLAKRRRTYLGGAAGRS [L5W] ?
Response: 2.58

Prompt: Also KAASLARFLAKRRRTYLGGAAGRS [N8F] ?
Response: 2.33

Prompt: Also KAASLANNLAKRRRTYLGGAAGRS [R7N] ?
Response: 3.59

Prompt: Also KAASLARNLAKRRRTYLGGAAGRC [S24C] ?
Response: 2.11

Prompt: Also KAASLARNLAKRRRTYLGGAAGKS [R23K] ?
Response: 2.14

Prompt: Also KAASLARNLAKRWRTYLGGAAGRS [R13W] ?
Response: 2.91

Prompt: Also KAASLARNLAKRRRTYLGGMAGRS [A20M] ?
Response: 2.42

Prompt: Also KAASLARNLAKRRRTYLIGAAGRS [G18I] ?
Response: 2.86

Prompt: Also KAASLARNLHKRRRTYLGGAAGRS [A10H] ?
Response: 3.15

Prompt: Also KAASLARNLAKRRRTYLGGAAGRM [S24M] ?
Response: 2.2

Prompt: Also KAASLARNRAKRRRTYLGGAAGRS [L9R] ?
Response: 4.9

Prompt: Also KAASLARNLAKRRRTYFGGAAGRS [L17F] ?
Response: 2.05

Prompt: Also KAASLARNLAKRRRTYLGGAAGVS [R23V] ?
Response: 2.15

Prompt: Also KAASLARNLAKRRRTYLGGAAGRP [S24P] ?
Response: 1.83

Prompt: Also KAASLARNLAKRRRTYWGGAAGRS [L17W] ?
Response: 1.69

Prompt: Also KAASTARNLAKRRRTYLGGAAGRS [L5T] ?
Response: 3.96

Prompt: Also KAASLARNLAKRRLTYLGGAAGRS [R14L] ?
Response: 1.84

Prompt: Also KAASLARNLAKRRRTYLGGAAGRL [S24L] ?
Response: 2.04

Prompt: Also KAACLARNLAKRRRTYLGGAAGRS [S4C] ?
Response: 1.98

Prompt: Also KAASLARNLAKRRRTYLGGAAGLS [R23L] ?
Response: 1.83

Prompt: Also KAHSLARNLAKRRRTYLGGAAGRS [A3H] ?
Response: 3.48

Prompt: Also KAASLARNLAKRRRTYLGGAAGQS [R23Q] ?
Response: 1.23

Prompt: Also KAASLARNLAKRRRTYLGGAAGGS [R23G] ?
Response: 1.85

Prompt: Also KAASLARNLAKCRRTYLGGAAGRS [R12C] ?
Response: 2.46

Prompt: Also KAASLARNLAKRRRTKLGGAAGRS [Y16K] ?
Response: 2.49

Prompt: Also KAASLARNLAKRRRTYLGGHAGRS [A20H] ?
Response: 2.59

Prompt: Also KAASLARNLAQRRRTYLGGAAGRS [K11Q] ?
Response: 1.98

Prompt: Also KAASLARNLAKRRSTYLGGAAGRS [R14S] ?
Response: 3.11

Prompt: Also KAASLARNLAKRRRTYLGIAAGRS [G19I] ?
Response: 1.87

Prompt: Also KAASLARNLAKRRRTELGGAAGRS [Y16E] ?
Response: 1.86

Prompt: Also KAASLYRNLAKRRRTYLGGAAGRS [A6Y] ?
Response: 1.94

Prompt: Also KAASLARNLAKRRRTYLGGARGRS [A21R] ?
Response: 1.71

Prompt: Also KAASLARNLAKRRRTYLGGADGRS [A21D] ?
Response: 2.69

Prompt: Also KAASLWRNLAKRRRTYLGGAAGRS [A6W] ?
Response: 1.58

Prompt: Also KAASLARNLAKRRRTYLVGAAGRS [G18V] ?
Response: 2.36

Prompt: Also KAKSLARNLAKRRRTYLGGAAGRS [A3K] ?
Response: 2.68

Prompt: Also KAASLARNLAKRRRTYYGGAAGRS [L17Y] ?
Response: 3.3

Prompt: Also KAASLFRNLAKRRRTYLGGAAGRS [A6F] ?
Response: 2.23

Prompt: Also KAASLARNLAKRRRTYLSGAAGRS [G18S] ?
Response: 1.69

Prompt: Also KAASLARNLAKRRETYLGGAAGRS [R14E] ?
Response: 2.66

Prompt: Also KAASLARNLAKRRRTYLGSAAGRS [G19S] ?
Response: 3.14

Prompt: Also KAASLARNLANRRRTYLGGAAGRS [K11N] ?
Response: 2.36

Prompt: Also KAASLARYLAKRRRTYLGGAAGRS [N8Y] ?
Response: 3.42

Prompt: Also KAASLARNLAKRRRTYRGGAAGRS [L17R] ?
Response: 3.44

Prompt: Also KAASLARNLAKRRRTYLGGAAYRS [G22Y] ?
Response: 2

Prompt: Also KAASLARGLAKRRRTYLGGAAGRS [N8G] ?
Response: 3.98

Prompt: Also KAASLARNFAKRRRTYLGGAAGRS [L9F] ?
Response: 2.44

Prompt: Also KAASLARNLAKRRRTYLGNAAGRS [G19N] ?
Response: 2.68

Prompt: Also KAASLARNLAKHRRTYLGGAAGRS [R12H] ?
Response: 2.41

Prompt: Also GAASLARNLAKRRRTYLGGAAGRS [K1G] ?
Response: 3.77

Prompt: Also KAAQLARNLAKRRRTYLGGAAGRS [S4Q] ?
Response: 2.36

Prompt: Also KAASLARNLAKRRRTYLGFAAGRS [G19F] ?
Response: 2.03

Prompt: Also KAASLARNLAKRRRTYLGGAEGRS [A21E] ?
Response: 3.14

Prompt: Also HAASLARNLAKRRRTYLGGAAGRS [K1H] ?
Response: 2.49

Prompt: Also KAASAARNLAKRRRTYLGGAAGRS [L5A] ?
Response: 4.18

Prompt: Also KAASLARNLAKKRRTYLGGAAGRS [R12K] ?
Response: 2.9

Prompt: Also KAASLARNLAKRRRTQLGGAAGRS [Y16Q] ?
Response: 2.81

Prompt: Also KAASLMRNLAKRRRTYLGGAAGRS [A6M] ?
Response: 2.52

Prompt: Also KAASLARNLAKRRRTYLGGAAWRS [G22W] ?
Response: 1.44

Prompt: Also KAASLARNLAKRRVTYLGGAAGRS [R14V] ?
Response: 2.24

Prompt: Also KAASLARNLAKRMRTYLGGAAGRS [R13M] ?
Response: 3.77

Prompt: Also KAASLARNLAKRSRTYLGGAAGRS [R13S] ?
Response: 2.52

Prompt: Also KAASLARNLAKRRRTYLGGAAKRS [G22K] ?
Response: 2.05

Prompt: Also KAAVLARNLAKRRRTYLGGAAGRS [S4V] ?
Response: 2.36

Prompt: Also KAASLARNAAKRRRTYLGGAAGRS [L9A] ?
Response: 3.41

Prompt: Also KAASLARNLAKRRRHYLGGAAGRS [T15H] ?
Response: 2.09

Prompt: Also KAASLARNLAKRRRTYMGGAAGRS [L17M] ?
Response: 2.64

// provenance: the supplement of paper PMC10567573
